Bliss excess overview
Tested on: HCC1395 (Breast Carcinoma)
Assay: Bliss excess, mean over the matrix (fraction); higher = more synergy
# respond with the number and nothing more

// below: answered compounds
Short answer for Cc1c2c(nn1C)CSCc1cc(n(C)n1)CSc1cc(c3ccccc3c1)OCCCc1c(C(=O)O)n(C)c3c-2c(Cl)ccc13 [AZD5991] + C[C@@H](Nc1cc(F)cc(F)c1)c1cc(C(=O)N(C)C)cc2c(=O)cc(N3CCOCC3)oc12 [AZD8186] (first compound max 1 µM, 7x7, partner max 3 µM) : Bliss excess was 0.0527

Short answer for CN(CCO)CC[C@H](CSc1ccccc1)Nc1ccc(S(=O)(=O)NC(=O)c2ccc(N3CCC([C@@H](O)c4ccccc4-c4ccc(Cl)cc4)CC3)cc2)cc1S(=O)(=O)C(F)(F)F [AZD4320] + Cc1cc2ncnn2cc1Nc1ncc2c(n1)n(C1CCOCC1)c(=O)n2C [AZD7648] (first compound max 1 µM, 7x7, partner max 10 µM) : Bliss excess was -0.037

Please find the next compound below.
Short answer for CCN(CCO)CCCOc1ccc2c(Nc3cc(CC(=O)Nc4cccc(F)c4)[nH]n3)ncnc2c1 [AZD2811] + C[C@@H]1COCCN1C2=NC(=NC(=C2)C3(CC3)[S@](=N)(=O)C)C4=C5C=CNC5=NC=C4 [AZD6738] (first compound max 1 µM, 7x7, partner max 10 µM) : Bliss excess was -0.0579

====

Test system: LU-165 (Small Cell Lung Carcinoma)
Test: combination Emax (second highest fraction inhibited in the dose matrix, 72 h); higher = more inhibition; extreme values may be limits of the assay
experimental-endpoint: combination Emax
# respond with the number and nothing more

Short answer for Cc1c2c(nn1C)CSCc1cc(n(C)n1)CSc1cc(c3ccccc3c1)OCCCc1c(C(=O)O)n(C)c3c-2c(Cl)ccc13 [AZD5991] + Nc1ccn([C@@H]2O[C@H](CO)[C@@H](O)C2(F)F)c(=O)n1 [Gemcitabine] (first compound max 1 µM, 7x7, partner max 0.3 µM) : combination Emax was 0.423

Next:
Short answer for C=CCn1c(=O)c2cnc(Nc3ccc(N4CCN(C)CC4)cc3)nc2n1-c1cccc(C(C)(C)O)n1 [AZD1775] + C1CN(CCC1(C(=O)N[C@@H](CCO)C2=CC=C(C=C2)Cl)N)C3=NC=NC4=C3C=CN4 [Capivasertib] (first compound max 3 µM, partner max 3 µM) : combination Emax was 0.536

====

combination Emax overview
Tested on: A2780 (Ovarian Carcinoma)
Assay: combination Emax (second highest fraction inhibited in the dose matrix, 72 h); higher = more inhibition; extreme values may be limits of the assay
# respond with the number and nothing more

Short answer for C[C@@H]1COCCN1c1cc(C2([S@](C)(=N)=O)CC2)nc(-c2ccnc3[nH]ccc23)n1 [AZD6738] + Nc1ccn([C@@H]2O[C@H](CO)[C@@H](O)C2(F)F)c(=O)n1 [Gemcitabine] (first compound max 10 µM, 7x7, partner max 0.3 µM) : combination Emax was 0.95

Short answer for C[C@@H](Nc1cc(F)cc(F)c1)c1cc(C(=O)N(C)C)cc2c(=O)cc(N3CCOCC3)oc12 [AZD8186] + C1CN(CCC1(C(=O)N[C@@H](CCO)C2=CC=C(C=C2)Cl)N)C3=NC=NC4=C3C=CN4 [AZD5363] (first compound max 10 µM, 7x7, partner max 10 µM) : combination Emax was 0.784

Please find the next compound below.
Short answer for COc1nnc2ccc(N3CCC(c4ccc(OCCN5CCN(C)C(=O)[C@H]5C)cc4)CC3)nn12 [AZD5153] + CC1(C)CCC(CN2CCN(c3ccc(C(=O)NS(=O)(=O)c4ccc(NCC5CCOCC5)c([N+](=O)[O-])c4)c(Oc4cnc5[nH]ccc5c4)c3)CC2)=C(c2ccc(Cl)cc2)C1 [Venetoclax] (first compound max 1 µM, 7x7, partner max 1 µM) : combination Emax was 0.736

====

System: JVM-2 (B-Cell Non-Hodgkin's Lymphoma)
Assay: Bliss excess, mean over the matrix (fraction); higher = more synergy
Bliss excess overview
# respond with the number and nothing more

Short answer for CC1(C)CCC(CN2CCN(c3ccc(C(=O)NS(=O)(=O)c4ccc(NCC5CCOCC5)c([N+](=O)[O-])c4)c(Oc4cnc5[nH]ccc5c4)c3)CC2)=C(c2ccc(Cl)cc2)C1 [Venetoclax] + CN(C)CCCOc1ccc(-c2ccc3ncc4c(c3c2)n(C2CCOCC2)c(=O)n4C)cn1 [AZD0156] (first compound max 1 µM, 7x7, partner max 1 µM) : Bliss excess was 0.0143

Short answer for NC1(C(=O)N[C@@H](CCO)c2ccc(Cl)cc2)CCN(c2ncnc3[nH]ccc23)CC1 [Capivasertib] + COc1nnc2ccc(N3CCC(c4ccc(OCCN5CCN(C)C(=O)[C@H]5C)cc4)CC3)nn12 [AZD5153] (first compound max 10 µM, 7x7, partner max 1 µM) : Bliss excess was -0.0764

Please find the next compound below.
Short answer for NC1(C(=O)N[C@@H](CCO)c2ccc(Cl)cc2)CCN(c2ncnc3[nH]ccc23)CC1 [Capivasertib] + CC(C)n1c(=O)n(C)c2cnc3cc(F)c(-c4ccc(OCCCN5CCCCC5)nc4)cc3c21 [AZD1390] (first compound max 10 µM, 7x7, partner max 0.3 µM) : Bliss excess was -0.0662

====

Test system: CGTH-W-1 (Thyroid Gland Carcinoma)
Test: combination Emax (second highest fraction inhibited in the dose matrix, 72 h); higher = more inhibition; extreme values may be limits of the assay
combination Emax overview
# respond with the number and nothing more

Short answer for CC1(C)CCC(CN2CCN(c3ccc(C(=O)NS(=O)(=O)c4ccc(NCC5CCOCC5)c([N+](=O)[O-])c4)c(Oc4cnc5[nH]ccc5c4)c3)CC2)=C(c2ccc(Cl)cc2)C1 [Venetoclax] + CCN(CCO)CCCOc1ccc2c(Nc3cc(CC(=O)Nc4cccc(F)c4)[nH]n3)ncnc2c1 [AZD2811] (first compound max 1 µM, 7x7, partner max 1 µM) : combination Emax was 0.272

Please find the next molecule below.
Short answer for CCc1c2c(nc3ccc(O)cc13)-c1cc3c(c(=O)n1C2)COC(=O)[C@]3(O)CC [SN-38] + CN(C)CCCOc1ccc(-c2ccc3ncc4c(c3c2)n(C2CCOCC2)c(=O)n4C)cn1 [AZD0156] (first compound max 0.3 µM, 7x7, partner max 1 µM) : combination Emax was 0.771

====

Bliss excess overview
Test system: NCI-H2228 (Lung Adenocarcinoma)
Assay: Bliss excess, mean over the matrix (fraction); higher = more synergy
# respond with the number and nothing more

Short answer for CC(=O)c1c(C)c2cnc(Nc3ccc(N4CCNCC4)cn3)nc2n(C2CCCC2)c1=O [Palbociclib] + Cn1cnc2c(F)c(Nc3ccc(Br)cc3Cl)c(C(=O)NOCCO)cc21 [Selumetinib] (first compound max 10 µM, 7x7, partner max 10 µM) : Bliss excess was -0.0822

Please find the next compound below.
Short answer for NC1(C(=O)N[C@@H](CCO)c2ccc(Cl)cc2)CCN(c2ncnc3[nH]ccc23)CC1 [Capivasertib] + CC(C)n1c(=O)n(C)c2cnc3cc(F)c(-c4ccc(OCCCN5CCCCC5)nc4)cc3c21 [AZD1390] (first compound max 10 µM, 7x7, partner max 0.3 µM) : Bliss excess was -0.0728

====

Test system: NCI-H441 (Lung Adenocarcinoma)
Experiment: Bliss excess, mean over the matrix (fraction); higher = more synergy
Bliss excess overview
# respond with the number and nothing more

// below: answered compounds
Short answer for CN(C)CCCOc1ccc(-c2ccc3ncc4c(c3c2)n(C2CCOCC2)c(=O)n4C)cn1 [AZD0156] + CCN(CCO)CCCOc1ccc2c(Nc3cc(CC(=O)Nc4cccc(F)c4)[nH]n3)ncnc2c1 [AZD2811] (first compound max 1 µM, 7x7, partner max 1 µM) : Bliss excess was -0.0776

Short answer for CN(CCO)CC[C@H](CSc1ccccc1)Nc1ccc(S(=O)(=O)NC(=O)c2ccc(N3CCC([C@@H](O)c4ccccc4-c4ccc(Cl)cc4)CC3)cc2)cc1S(=O)(=O)C(F)(F)F [AZD4320] + C[C@@H]1COCCN1C2=NC(=NC(=C2)C3(CC3)[S@](=N)(=O)C)C4=C5C=CNC5=NC=C4 [AZD6738] (first compound max 1 µM, 7x7, partner max 10 µM) : Bliss excess was -0.048

Please find the next compound below.
Short answer for O=C(c1cc(Cc2n[nH]c(=O)c3ccccc23)ccc1F)N1CCN(C(=O)C2CC2)CC1 [Olaparib] + COc1nnc2ccc(N3CCC(c4ccc(OCCN5CCN(C)C(=O)[C@H]5C)cc4)CC3)nn12 [AZD5153] (first compound max 10 µM, 7x7, partner max 1 µM) : Bliss excess was -0.0779

====

Bliss excess overview
Test system: 5637 (Bladder Carcinoma)
Assay: Bliss excess, mean over the matrix (fraction); higher = more synergy
# respond with the number and nothing more

Short answer for CCc1c2c(nc3ccc(O)cc13)-c1cc3c(c(=O)n1C2)COC(=O)[C@]3(O)CC [SN-38] + CN(C)CCCOc1ccc(-c2ccc3ncc4c(c3c2)n(C2CCOCC2)c(=O)n4C)cn1 [AZD0156] (first compound max 0.3 µM, 7x7, partner max 1 µM) : Bliss excess was 0.0507

Please find the next compound below.
Short answer for NC1(C(=O)N[C@@H](CCO)c2ccc(Cl)cc2)CCN(c2ncnc3[nH]ccc23)CC1 [Capivasertib] + COc1nnc2ccc(N3CCC(c4ccc(OCCN5CCN(C)C(=O)[C@H]5C)cc4)CC3)nn12 [AZD5153] (first compound max 10 µM, 7x7, partner max 1 µM) : Bliss excess was 0.0035
